biological target: human Fc (human); assay: ELISA; negative control
A collection of binders and their measured optical density
Hi! Could you send only the number? It should be in OD, unit omitted.

Some binders with recorded optical density:
>  <binder>
366_A03 (antibody, V domains shown) VH: EVQLLESGGGLVQPGGSLRLSCAASGFTFDSYSMNWVRQAPGKGLEWVAGINYNSGYKGYADSVKGRFTISRDNSKNTLYLQMNSLRAEDTAVYYCARSATWHDTHLDYWGQGTLVTVSS VL: DIQMTQSPSSLSASVGDRVTITCRASQSISSYLNWYQQKPGKAPKLLIYAATSLASGVPSRFSGSGSGTDFTLTISSLQPEDFATYYCQQSYSNPLTFGGGTKVEIK

>  <optical density [OD]>
0.303

$$$$
>  <binder>
370_A09 (antibody, V domains shown) VH: EVQLLESGGGLVQPGGSLRLSCAASGFTFSSYSMNWVRQAPGKGLEWVAGINYNGGYTGYADSVKGRFTISRDNSKNTLYLQMNSLRAEDTAVYYCARSATWHDTHLDYWGQGTLVTVSS VL: DIQMTQSPSSLSASVGDRVTITCRASQSILTYLNWYQQKPGKAPKLVIYAATSRASGVPSRFSGSGSGTDFTLTISSLQPEDFATYYCQQSYDTPLTFGGGTKVEIK

>  <optical density [OD]>
0.361

$$$$
>  <binder>
372_D04 (antibody, V domains shown) VH: EVQLLESGGGLVQPGGSLRLSCAASGFTFSSYSMNWVRQAPGKGLEWVANINYNSGYTGYADSVKGRFTISRDNSKNTLYLQMNSLRAEDTAVYYCARSATWHDTHLDYWGQGTLVTVSS VL: DIQMTQSPSSLSASVGDRVTITCRASQSILTYLNWYQQKPGKAPKLLIYAATSLHSGVPSRFSGSGSGTDFTLTISSLQPEDFATYYCQQSYDLPLTFGGGTKVEIK

>  <optical density [OD]>
0.419

$$$$
>  <binder>
373_B11 (antibody, V domains shown) VH: EVQLLESGGGLVQPGGSLRLSCAASGFTFSSYSMNWVRQAPGKGLEWVANINYNSGYKGYADSVKGRFTISRDNSKNTLYLQMNSLRAEDTAVYYCARSATWHDTHLDYWGQGTLVTVSS VL: DIQMTQSPSSLSASVGDRVTITCRASQSILSYLNWYQQKPGKAPKLLIYAATSRASGVPSRFSGSGSGTDFTLTISSLQPEDFATYYCQQSYDNPLTFGGGTKVEIK

>  <optical density [OD]>
0.178

$$$$

// switching to the query binder
Query: Dear colleague, I am looking for the recorded optical density of the following binder: 375_D04 (antibody, V domains shown) VH: EVQLLESGGGLVQPGGSLRLSCAASGFTFDDSSMHWVRQAPGKGLEWVSNINYNGGYTGYADSVKGRFTISRDNSKNTLYLQMNSLRAEDTAVYYCAKSANWHDTALDYWGQGTLVTVSS VL: DIQMTQSPSSLSASVGDRVTITCRASQSILSYVNWYQQKPGKAPKLVIYAATSRASGVPSRFSGSGSGTDFTLTISSLQPEDFATYYCQQSYELPLTFGGGTKVEIK
Result: 0.182
